# target or test system: T1, human GIP receptor (human, UniProt P48546 22-466)
# T1 sequence (looked up): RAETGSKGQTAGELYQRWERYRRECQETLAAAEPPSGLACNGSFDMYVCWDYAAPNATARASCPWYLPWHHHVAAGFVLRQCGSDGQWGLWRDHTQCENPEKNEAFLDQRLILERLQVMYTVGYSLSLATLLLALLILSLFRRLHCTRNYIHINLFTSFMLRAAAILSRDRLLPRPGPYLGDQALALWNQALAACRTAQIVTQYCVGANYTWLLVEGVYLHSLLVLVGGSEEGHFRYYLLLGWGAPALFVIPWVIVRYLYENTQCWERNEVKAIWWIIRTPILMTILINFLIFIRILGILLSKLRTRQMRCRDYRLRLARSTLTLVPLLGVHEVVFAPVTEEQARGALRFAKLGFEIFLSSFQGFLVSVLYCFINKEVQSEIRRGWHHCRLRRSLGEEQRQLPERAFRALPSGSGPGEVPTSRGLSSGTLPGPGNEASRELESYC
# experiment description: cell-based or functional assay
Bridges are numbered along the chain shown (N, C = ends). Where no end group is shown, it is not given here. [ ]: non-standard residue; d: D form. The star is where a group is joined. Acetyl(2-(4-imidazolyl)) = O=C(Cc1c[nH]cn1)*; Aib = CC(C)(N)C(=O)O
property: in vitro Activity Compared to Native Peptide (%), vs GIP

Known results for binders:
>>> value("[Acetyl(2-(4-imidazolyl))][Aib]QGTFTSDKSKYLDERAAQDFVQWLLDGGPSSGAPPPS (not fully specified (C-terminus)) [triple agonist of SEQ ID NO: 62]")
"< 0.1%"
>>> value("[Acetyl(2-(4-imidazolyl))]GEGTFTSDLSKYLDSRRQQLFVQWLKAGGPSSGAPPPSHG-NH2 [triple agonist of SEQ ID NO: 11]")
"< 0.1%"

Now consider a different binder.
binder H[Aib]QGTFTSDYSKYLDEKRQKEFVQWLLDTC (bridge 16-20; not fully specified (C-terminus)) [triple agonist of SEQ ID NO: 52] , in vitro Activity Compared to Native Peptide (%), vs GIP observed: 0.3%
